- ASSAY INFO: In vitro human microsomal stability assay
- Assay type: in vitro ADME
- APPLIED CONDITIONS: human, microsomes, 0.5 h, 0.5 μM, pH 7.4
OBSERVABLE: HUMAN MICROSOMAL STABILITY (% REMAINING AFTER 30 MINUTES) (%)

# example entries with known answers
- COMPOUND: "OC(c1ccccn1)C1(c2ccc(F)c(Cl)c2)CC2(C1)OCCO2 (stereo not drawn)"
  RECORDED MEASUREMENT: 54
- COMPOUND: "OC(CC1(c2cccc(C(F)(F)F)c2)CCC1)c1ccccn1 (stereo not drawn)"
  RECORDED MEASUREMENT: 6.8
- COMPOUND: "O=C1CC(c2cccc(OC(F)(F)F)c2)([C@@H](O)c2ccccn2)C1 (single isomer, unassigned)"
  RECORDED MEASUREMENT: 42
- COMPOUND: "Cc1cccc(C2(C(O)c3ccccn3)CCC2)c1 (stereo not drawn)"
  RECORDED MEASUREMENT: 0.13
- COMPOUND: "O[C@H](c1ccccn1)C1(c2ccc(C(F)(F)F)cc2)CC(F)(F)C1"
  RECORDED MEASUREMENT: 56

I: OC(c1ccccn1)C1(C2CCC(C(F)(F)F)CC2)CCC1 (stereo not drawn)
II: OC(c1ccccn1)C1(c2ccc(OC(F)(F)F)cc2)CCC1 (stereo not drawn)
III: CC1(O)CC(c2cccc(C(F)(F)F)c2)(C(O)c2ccccn2)C1 (single isomer, unassigned) [Example 244]
Asked: Would you mind ranking these compounds by ascending HUMAN MICROSOMAL STABILITY (% REMAINING AFTER 30 MINUTES)? Output the labels ranked as instructed.
Given back: I, II, III
